Tested on: asthmatic mice
method_summary: Decrease in airway resistance (Raw) by period of administration, Example 8 / Table 2
Format: in vivo
settings: 2 days administration

[
  {
    "compound": "COc1ccccc1OCCNCC(O)COc1cccc2[nH]c3ccccc3c12 (stereo not shown) [Carvedilol, carvedilol]",
    "system_name": "asthmatic mice",
    "Decreased Raw": "no"
  },
  {
    "compound": "CC(C)(C)NCC(O)c1ccc(O)c(CO)c1 (stereo not shown) [Salbutamol, salbutamol]",
    "system_name": "asthmatic mice",
    "Decreased Raw": "no"
  },
  {
    "compound": "C=CCc1ccccc1OCC(O)CNC(C)C (stereo not shown) [Alprenolol, alprenolol]",
    "system_name": "asthmatic mice",
    "Decreased Raw": "no"
  },
  {
    "compound": "CC(C)(C)NCC(O)COc1cccc2c1CC(O)C(O)C2 (stereo not shown) [Nadolol, nadolol]",
    "system_name": "asthmatic mice",
    "Decreased Raw": "yes"
  }
]

* * *

system_name: β2-adrenergic receptor (Mus musculus)
method_summary: Upregulation of β2-adrenergic receptor density by period of administration, Example 8 / Table 2
Assay type: in vivo, mice
Set-up: from tissue
settings: 15 minutes administration

[
  {
    "compound": "CC(C)(C)NCC(O)c1ccc(O)c(CO)c1 (stereo not shown)",
    "Increased β2AR density": "yes"
  },
  {
    "compound": "CC(C)(C)NCC(O)COc1cccc2c1CC(O)C(O)C2 (stereo not shown)",
    "Increased β2AR density": "no"
  },
  {
    "compound": "COc1ccccc1OCCNCC(O)COc1cccc2[nH]c3ccccc3c12 (stereo not shown)",
    "Increased β2AR density": "no"
  },
  {
    "compound": "C=CCc1ccccc1OCC(O)CNC(C)C (stereo not shown)",
    "Increased β2AR density": "yes"
  }
]

* * *

system_name: β2-adrenergic receptor (Mus musculus, UniProt P18762)
Sequence (P18762 whole entry): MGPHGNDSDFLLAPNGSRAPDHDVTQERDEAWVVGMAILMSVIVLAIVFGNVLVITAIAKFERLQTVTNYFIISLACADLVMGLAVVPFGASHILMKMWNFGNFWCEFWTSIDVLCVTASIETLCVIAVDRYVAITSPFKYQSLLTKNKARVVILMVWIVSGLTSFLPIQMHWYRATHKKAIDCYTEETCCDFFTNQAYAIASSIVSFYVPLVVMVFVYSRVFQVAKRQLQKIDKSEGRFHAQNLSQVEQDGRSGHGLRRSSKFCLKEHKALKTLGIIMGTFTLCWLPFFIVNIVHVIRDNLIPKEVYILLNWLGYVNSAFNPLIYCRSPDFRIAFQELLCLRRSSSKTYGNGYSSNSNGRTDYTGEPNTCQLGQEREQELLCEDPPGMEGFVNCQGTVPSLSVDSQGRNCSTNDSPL
method_summary: Upregulation of β2-adrenergic receptor density by period of administration, Example 8 / Table 2
Format: in vivo, mice
Parameters: from tissue
settings: 28 days administration
observed_property: Increased β2AR density

[
  {
    "molecule": "CC(C)(C)NCC(O)COc1cccc2c1CC(O)C(O)C2 (stereo not shown) [Nadolol, nadolol]",
    "experimental_result": "yes"
  },
  {
    "molecule": "COc1ccccc1OCCNCC(O)COc1cccc2[nH]c3ccccc3c12 (stereo not shown) [Carvedilol, carvedilol]",
    "experimental_result": "yes"
  },
  {
    "molecule": "CC(C)(C)NCC(O)c1ccc(O)c(CO)c1 (stereo not shown) [Salbutamol, salbutamol]",
    "experimental_result": "no"
  },
  {
    "molecule": "C=CCc1ccccc1OCC(O)CNC(C)C (stereo not shown) [Alprenolol, alprenolol]",
    "experimental_result": "no"
  }
]

Where these numbers come from: patent US20250017878A1
